The measurements presented in this section are drawn from PubChem BioAssay (NCI).

Reported TGI values for the following molecules.
Test system: 786-0 renal
test: NCI tumour cell line growth inhibition, 48 h

{"columns": ["molecule", "TGI"],
 "data": [
  ["CC1(C)N=C(N)N=C(N)N1c1ccc(OCC(=O)Nc2ccc(S(=O)(=O)F)cc2Cl)c(Cl)c1", "> 100 µM"],
  ["CN(C)CC1(Cc2ccccc2)CC/C(=C\\c2ccccc2)C1=O (stereo unspecified)", "> 100 µM"],
  ["Nc1ncnc2c1ccn2CC#CCO", "> 100 µM"],
  ["CC(C)=CCC/C(C)=C/Cc1c2c(c3oc(-c4ccc(O)c(O)c4)c(O)c(=O)c3c1O)C=CC(C)(C)O2", "7.92 µM"],
  ["CCN1C(=O)/C(=c2\\sc3n(c2=O)C2C(NN=3)N(CC)C(=O)N2CC)c2ccccc21 (stereo unspecified)", "16.9 µM"],
  ["Cc1cc(O)ccc1C1(c2ccc(O)cc2C)OC(=O)c2ccccc21", "34 µM"],
  ["CC(=O)[O-].CC(=O)[O-].O=C([CH-]C(=O)c1ccccc1)c1ccccc1.[Nd+3].[OH3+]", "63.9 µM"],
  ["CO/N=C(/C)COc1ccc2c(c1)oc(=O)c1cc(OC)ccc12", "> 100 µM"],
  ["C=C(C)COc1ccc2c(c1)CCC1C2CCC2(C)C(=O)/C(=N/O)CC12 (stereo unspecified)", "13 µM"],
  ["Cc1ccccc1N(CCC#N)C1=NN(C(=O)CC(=O)Nc2ccc(Cl)cc2)C(c2ccccc2)C1 (stereo unspecified)", "> 100 µM"],
  ["Cn1c2ncccc2n2c(=O)cc(O)cc12", "> 100 µM"],
  ["C=C(C(=O)c1ccccc1)C(NC(C)(C)C)c1ccccc1 (stereo unspecified)", "4.08 µM"],
  ["CCOC(=O)/C(C1=NCCN1C)=C(\\O)c1ccccc1", "> 100 µM"],
  ["Cc1nc(C)c(N2CCN(Cc3ccccc3)CC2)c(=O)[nH]1", "> 100 µM"],
  ["COc1ccc2[nH]c(C(=O)OCc3ccc4c(Br)cc(Br)c(O)c4n3)cc2c1", "2.61 µM"],
  ["O=C1NC(c2ccc3ccccc3c2)Nc2ccccc21 (stereo unspecified)", "> 100 µM"],
  ["COc1cc2ccnc(C#N)c2cc1OCc1ccccc1", "> 100 µM"],
  ["CCOC(=O)C1=C(C)NC2SC(=O)/C(=C\\c3cccc(Cl)c3)N2C1c1ccccc1 (stereo unspecified)", "> 100 µM"],
  ["COc1cc(C2C(C(=O)NCc3ccccc3)=C(C)NC(C)=C2C(=O)NCc2ccccc2)ccc1O", "> 100 µM"],
  ["NNC(=O)/C(NC(=O)c1ccccc1)=C(\\N)c1cccc([N+](=O)[O-])c1", "> 100 µM"],
  ["CCOC(=O)C(C(=O)OCC)=C1C=C(c2ccccc2)c2ccccc21", "> 100 µM"]
]}

====

Tested on: SNB-19 CNS
test: NCI tumour cell line growth inhibition, 48 h
Reported TGI values for the following compounds.

{"columns": ["compound", "TGI"],
 "data": [
  ["C1CSCCSCCSCCSCCS1", "> 100 µM"],
  ["N#Cc1c(C#N)c(SSc2c(C#N)c(C#N)c(N)n2-c2cccc3ccccc23)n(-c2cccc3ccccc23)c1N", "46.4 µM"],
  ["O=c1[nH][nH]c(=O)n1Cc1ccccc1", "> 100 µM"],
  ["CCOC(=O)C(C(=O)OCC)c1cc(-c2cc3ccccc3o2)oc(=O)c1C#N", "> 100 µM"],
  ["Clc1nc(Cl)c2ncn(-c3ccccc3)c2n1", "23.9 µM"],
  ["C1=NN2C(c3ccccc3)=NOC2C2C(c3ccccc3)=NOC12 (stereo not drawn)", "> 100 µM"],
  ["CC1=C2CC[C@@]3(C)C(=CCC3O)C2(C)CCC1=O (stereo partly drawn)", "> 100 µM"],
  ["CCOC(=O)c1c2ccccc2n2c(=O)n(-c3ccc(OC)cc3)nnc12", "> 79.9 µM"],
  ["O=P1(Oc2ccc(Cl)cc2Cl)Oc2cc3ccccc3cc2O1", "> 100 µM"],
  ["COC1(OC)CCN(Cc2ccccc2)C1=O", "34.9 µM"],
  ["c1cc2c(cc1C1OCC3C(c4ccc5c(c4)OCO5)OCC13)OCO2 (stereo not drawn)", "> 100 µM"],
  ["CCN1CCN(Cc2ccc(Nc3ncc(F)c(-c4cc(F)c5nc(C)n(C(C)C)c5c4)n3)nc2)CC1", "12.4 µM"],
  ["C[n+]1cccc(NC(=O)c2ccc3ccc4ccc(C(=O)Nc5ccc[n+](C)c5)nc4c3n2)c1", "> 27 µM"],
  ["CC(=O)Oc1ccc2c(c1)[nH]c1c3ccc(OC(C)=O)cc3oc(=O)c21", "> 100 µM"],
  ["CO/N=C(/C)COc1ccc2c(c1)oc(=O)c1cc(OC)ccc12", "> 100 µM"],
  ["OC1(C(Sc2ccccc2)Sc2ccccc2)CCCCCC1", "77.4 µM"],
  ["CCCCCCCCCCCCCCCC(=O)NS(=O)(=O)OC[C@H]1O[C@@H](n2cnc3c(N)ncnc32)[C@H](O)[C@@H]1O", "0.157 µM"],
  ["O=c1[nH]c(=O)n([C@H]2C[C@@H](CO)[C@@H](O)C2)cc1I", "> 100 µM"]
]}

====

Reported GI50 values for the following molecules.
Tested on: UACC-62 melanoma
test: NCI tumour cell line growth inhibition, 48 h

{"columns": ["molecule", "GI50"],
 "data": [
  ["CCCCCCCCCN=C(N)c1ccc(N2CCN(c3ccc(C(N)=NCCCCCCCCC)cc3)CC2)cc1", "2450 nM"],
  ["Nc1c(C(=O)Nc2cccc(Cl)c2)sc2nc3c(cc12)C(O)CCC3 (stereo not given)", "463 nM"],
  ["CCOC(=O)c1c(-c2ccccc2)n2c(=O)cc(C)c3c(O)c(O)cc1c32", "7940 nM"],
  ["CCOC(=O)C1=C(C)NC2SC(=O)/C(=C\\c3cccc(Cl)c3)N2C1c1ccccc1 (stereo not given)", "> 100000 nM"],
  ["NC(=O)c1c[nH]c2ncnc(N)c12", "95600 nM"],
  ["c1cc[n+](Cc2c3ccccc3cc3c2ccc2ccccc23)cc1", "1920 nM"],
  ["Cc1ccc2ncnc(N(C)C3CCCCC3)c2c1", "31900 nM"],
  ["CC(=O)Oc1ccc(C2OC(c3ccc4ccccc4c3OC(C)=O)=NN2C(C)=O)c(OC(C)=O)c1 (stereo not given)", "331 nM"],
  ["COc1ccc(OC)c(C2=C(c3cn(C)c4ccccc34)C(=O)NC2=O)c1", "> 25000 nM"],
  ["CC(=O)OC(C(=O)[O][Ge]([CH3])([CH3])[CH3])c1ccccc1 (stereo not given)", "> 100000 nM"],
  ["CCN1C(=O)/C(=c2\\sc3n(c2=O)C2C(NN=3)N(CC)C(=O)N2CC)c2ccccc21 (stereo not given)", "426 nM"],
  ["CCOC(=O)c1c(C)n([O-])c2cc(F)c(F)cc2[n+]1=O", "1470 nM"],
  ["CSC1=CC(=O)c2ccccc2C1=O", "4060 nM"],
  ["CO/N=C(/C)COc1ccc2c(c1)oc(=O)c1cc(OC)ccc12", "> 100000 nM"],
  ["C=C(C(=O)c1ccccc1)C(NC(C)(C)C)c1ccccc1 (stereo not given)", "1540 nM"]
]}

====

Reported TGI values for the following compounds.
Tested on: SK-MEL-5 melanoma
test: NCI tumour cell line growth inhibition, 48 h
Where a SMILES comes first, the peptide text is derived from it. [ ]: non-standard residue; d: D form. The star is where a group is joined. ξ: configuration not given here. NMeY = CN[C@@H](Cc1ccc(O)cc1)C(=O)O; Cbz = O=C(OCc1ccccc1)*; ξA = CC(N)C(=O)O
metric name: TGI

{"columns": ["compound", "meas value"],
 "data": [
  ["CC1(C=O)CC(CCc2ccccc2)NC1Cc1ccc(O)cc1 (stereo not drawn)", "29.4 µM"],
  ["Nc1nc2ccc(CNc3ccc(C(=O)NC(CC(=O)O)C(=O)O)cc3)cc2c(=O)[nH]1 (stereo not drawn)", "> 100 µM"],
  ["COC(=O)C(=O)C(C(=O)OC)C(=O)C(=O)Nc1cc(Cl)c(C)cc1S(=O)(=O)O (stereo not drawn)", "> 100 µM"],
  ["COc1nc(=O)[nH]c2c1C(c1ccc([N+](=O)[O-])cc1)c1c(OC)nc(=O)[nH]c1O2", "> 100 µM"],
  ["Cc1ccc2ncnc(N(C)C3CCCCC3)c2c1", "> 100 µM"],
  ["COc1cccc(CCn2c(N)c(-c3cc(Cl)cc(Cl)c3)c3ccc([N+](=O)[O-])cc3c2=O)c1", "9.07 µM"],
  ["CO/N=C(/C)COc1ccc2c(c1)oc(=O)c1cc(OC)ccc12", "> 100 µM"],
  ["CC(C)[C@@]12C[C@@H](OC(=O)COC(=O)c3ccccc3)[C@@](C)(O1)[C@@H]1CC[C@@H](C)[C@H]1[C@@H]2OC(=O)/C=C/c1ccccc1", "> 100 µM"],
  ["COc1ccc(C[C@@H](C(=O)N[C@@H](C)C(N)=O)N(C)C(=O)[C@@H]2CCCN2C(=O)[C@H](CC(C)C)NC(=O)C(C)NC(=O)OCc2ccccc2)cc1 (stereo partly drawn) (Cbz-[ξA]LP[NMeY](Me)A-NH2)", "> 100 µM"],
  ["Nc1nc(N)c2cc(S(=O)(=O)c3ccc4ccccc4c3)ccc2n1", "> 65.7 µM"],
  ["O=C1C(Cl)C(c2ccc(O)cc2)N1n1cnc2ccccc2c1=O (stereo not drawn)", "> 100 µM"],
  ["CCOc1cc(Cl)c(C(C)NC(=O)c2cccc(OC)c2)cc1OCC (stereo not drawn)", "24.6 µM"],
  ["CCCCCCCCCCCCCCCCCCN(C)CC(COC)OP(=O)([O-])OCC[N+](C)(C)C (stereo not drawn)", "23.7 µM"],
  ["Cc1cn(CC(=S)NCCc2c[nH]c3ccccc23)c(=O)[nH]c1=O", "> 100 µM"],
  ["CCOC(=O)c1ccc(N=C2Sc3nc4ccccc4n3C2=Nc2ccc(C(=O)OCC)cc2)cc1", "63.2 µM"],
  ["C/C=C\\C1OC1(C)c1cc(=O)c2c(C)cc3c(c2o1)C(=O)c1c(O)c(C2CC(C)(N(C)C)C(OC(C)=O)C(C)O2)cc(C2CC(N(C)C)C(O)C(C)O2)c1C3=O (stereo not drawn)", "0.00936 µM"],
  ["CC1=CC2(C)C=C[C@@H]1C(=O)[C@@]1(C)CC[C@@](O)(C(C)C)[C@H]1CC2", "34 µM"],
  ["Nc1[nH]c(=O)nc2c1cnn2COCCO", "> 100 µM"]
]}
